System: MCF7
Experiment: Cytotoxicity against human MCF7 cells assessed as reduction in cell viability incubated for 48 hrs by MTS assay
Type: toxicity, cell-based
Settings: mcf7
readoutType: pEC50
Quick note: pEC50 means taking -log10 of the concentration in moles per liter.

Ask: // pEC50 lookup, key: `CCN1CCN(Cc2ccc(NC(=O)c3cc(Cl)cc(NC(=O)c4cncc(-c5ccc(C#N)cc5)c4)c3)cc2C(F)(F)F)CC1`
Reply: 5.66

Ask: // pEC50 lookup, key: `CCN1CCN(Cc2ccc(NC(=O)c3cc(Cl)cc(NC(=O)c4cccc(-c5cccs5)c4)c3)cc2C(F)(F)F)CC1`
Reply: 5.08

Ask: // pEC50 lookup, key: `CCN1CCN(Cc2ccc(NC(=O)c3cc(F)cc(NC(=O)c4cncc(-c5cccs5)c4)c3)cc2C(F)(F)F)CC1`
Reply: 4.99

Ask: // pEC50 lookup, key: `CCN1CCN(Cc2ccc(NC(=O)c3cc(Cl)cc(Nc4cncc(-c5cccs5)c4)c3)cc2C(F)(F)F)CC1`
Reply: 5.26

Ask: // pEC50 lookup, key: `CCN1CCN(Cc2ccc(NC(=O)c3cc(Cl)cc(NC(=O)c4cncc(-c5cncs5)c4)c3)cc2C(F)(F)F)CC1`
Reply: 5.09

Ask: // pEC50 lookup, key: `CCN1CCN(Cc2ccc(NC(=O)c3cc(Cl)cc(NC(=O)c4cnc(N)nc4)c3)cc2C(F)(F)F)CC1`
Reply: 4.86

Ask: // pEC50 lookup, key: `CCN1CCN(Cc2ccc(NC(=O)c3cc(NC(=O)c4cncc(-c5cccs5)c4)ccc3F)cc2C(F)(F)F)CC1`
Reply: 4.97

====

Answer each item with its documented EC50.
System: HepG2
Assay: Cytotoxicity against human HepG2 cells assessed as reduction in cell viability incubated for 48 hrs by MTS assay
Type: toxicity, cell-based
Conditions: hepg2
Entry rule: numbers only, all in µM.

Ask: // EC50 lookup, key: `CCN1CCN(Cc2ccc(NC(=O)c3cc(Cl)cc(NC(=O)c4cncc(-c5ccccc5)c4)c3)cc2C(F)(F)F)CC1`
Reply: 3.29

Ask: // EC50 lookup, key: `CCN1CCN(Cc2ccc(NC(=O)c3ccnc(NC(=O)c4cncc(-c5cccs5)c4)c3)cc2C(F)(F)F)CC1`
Reply: 3.03

Ask: // EC50 lookup, key: `CCN1CCN(Cc2ccc(NC(=O)c3cc(Cl)cc(NC(=O)c4cncc(-c5cccs5)c4)c3)cc2)CC1`
Reply: 8.77

Ask: // EC50 lookup, key: `CCN1CCN(Cc2ccc(NC(=O)c3cc(Cl)cc(NC(=O)c4cncnc4)c3)cc2C(F)(F)F)CC1`
Reply: 17.3

====

System: MCF7
Test: Cytotoxicity against human MCF7 cells assessed as reduction in cell viability incubated for 48 hrs by MTS assay
Type: toxicity, cell-based
Conditions: mcf7
Answer each item with its documented EC50.
Entry rule: numbers only, all in µM.

Ask: // EC50 lookup, key: `CCN1CCN(Cc2ccc(NC(=O)c3cc(Cl)cc(NC(=O)N4CCN(C)CC4)c3)cc2C(F)(F)F)CC1`
Reply: 18.8

Ask: // EC50 lookup, key: `CCN1CCN(Cc2ccc(NC(=O)c3cncc(NC(=O)c4cncc(-c5cccs5)c4)c3)cc2C(F)(F)F)CC1`
Reply: 4.71

Ask: // EC50 lookup, key: `CCN1CCN(Cc2ccc(NC(=O)c3cc(Br)cc(NC(=O)c4cncc(-c5cccs5)c4)c3)cc2C(F)(F)F)CC1`
Reply: 6.59

Ask: // EC50 lookup, key: `CCN1CCN(Cc2ccc(NC(=O)c3cc(NC(=O)c4cncc(-c5cccs5)c4)c(C)cc3F)cc2C(F)(F)F)CC1`
Reply: 6.91

====

Experiment: Selectivity index, ratio of EC50 for human HepG2 cells to EC50 for multidrug-resistant Plasmodium falciparum Dd2 at ring stage infected in A+ erythrocytes
Type: toxicity, cell-based
Settings: read-out: Ratio EC50
Criterion: selectivity ratio meeting or surpassing 30. Met: Yes. Not met: No.

Ask: Could you please find out whether `CCN1CCN(Cc2ccc(NC(=O)c3cc(NC(=O)c4cncc(-c5cccs5)c4)ccc3F)cc2C(F)(F)F)CC1` has selectivity ratio that meets 30 or exceeds it?
Reply: No

Ask: Could you please find out whether `CCN1CCN(Cc2ccc(NC(=O)c3cc(Cl)cc(NC(=O)c4cncc(-c5ccco5)c4)c3)cc2C(F)(F)F)CC1` has selectivity ratio that meets 30 or exceeds it?
Reply: Yes

Ask: Could you please find out whether `CCN1CCN(Cc2ccc(C(=O)Nc3cc(Cl)cc(NC(=O)c4cncc(-c5cccs5)c4)c3)cc2C(F)(F)F)CC1` has selectivity ratio that meets 30 or exceeds it?
Reply: Yes

Ask: Could you please find out whether `CCN1CCN(Cc2ccc(NC(=O)c3cc(Cl)cc(NC(=O)c4cncc(-c5cccs5)c4)c3)cc2C(F)(F)F)CC1` has selectivity ratio that meets 30 or exceeds it?
Reply: Yes

Ask: Could you please find out whether `CCN1CCN(Cc2ccc(NC(=O)c3cncc(NC(=O)c4cncc(-c5cccs5)c4)c3)cc2C(F)(F)F)CC1` has selectivity ratio that meets 30 or exceeds it?
Reply: Yes

Ask: Could you please find out whether `CCN1CCN(Cc2ccc(NC(=O)c3cc(Cl)cc(NCc4cncc(-c5cccs5)c4)c3)cc2C(F)(F)F)CC1` has selectivity ratio that meets 30 or exceeds it?
Reply: No
